Every entry's value here was drawn from patent US10233188B2.

- tested target: CDK6/Cyclin D1 (Homo sapiens (Human), UniProt Q00534)
- Sequence (Q00534 whole entry): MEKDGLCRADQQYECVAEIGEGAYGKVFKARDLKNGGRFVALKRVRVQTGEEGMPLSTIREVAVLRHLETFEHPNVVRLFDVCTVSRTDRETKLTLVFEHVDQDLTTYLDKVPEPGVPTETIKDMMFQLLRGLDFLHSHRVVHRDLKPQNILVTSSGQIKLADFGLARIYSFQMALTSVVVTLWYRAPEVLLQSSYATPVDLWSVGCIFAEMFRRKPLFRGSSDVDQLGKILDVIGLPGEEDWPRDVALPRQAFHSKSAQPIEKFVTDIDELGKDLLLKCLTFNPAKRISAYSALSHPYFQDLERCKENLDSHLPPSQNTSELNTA
- Sequence (P24385 whole entry partner): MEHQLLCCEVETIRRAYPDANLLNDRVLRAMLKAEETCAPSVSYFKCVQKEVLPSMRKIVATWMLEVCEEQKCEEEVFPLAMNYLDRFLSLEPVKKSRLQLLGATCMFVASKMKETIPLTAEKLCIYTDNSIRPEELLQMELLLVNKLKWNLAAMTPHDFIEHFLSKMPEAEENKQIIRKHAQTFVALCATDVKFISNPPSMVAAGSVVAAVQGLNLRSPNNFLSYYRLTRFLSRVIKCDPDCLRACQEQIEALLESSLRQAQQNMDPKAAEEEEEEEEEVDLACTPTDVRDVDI
- protocol notes: biochemical
- experimental context: CDK6_Ki (nM), non-phosphorylated CDK6/Cyclin D1, 2 mM ATP, Morrison fit
# reported Ki; entries follow
Write it as a number; the unit nM goes unstated.

> print(dat)
                                   molecule                             tested.target  recorded.value
1  C[C@H]1CCC[C@H]1n1c(=O)c(CCO)cc2cnc(NC3CCN(S(C)(=O)=O)CC3)nc21 [Example 40]  CDK6/Cyclin D1 (Homo sapiens (Human), UniProt Q00534)            0.14
2  C[C@@]1(O)CCC[C@H]1n1c(=O)ccc2cnc(NC3CCN(S(=O)(=O)C(F)(F)F)CC3)nc21 (single isomer, unassigned) [Example 88]  CDK6/Cyclin D1 (Homo sapiens (Human), UniProt Q00534)            1.99
3  Cc1cc2cnc(NC3CCN(S(=O)(=O)CC4CC4)CC3)nc2n([C@@H]2CCC[C@@]2(C)O)c1=O (single isomer, unassigned) [Example 116]  CDK6/Cyclin D1 (Homo sapiens (Human), UniProt Q00534)            0.21
4  C[C@@]1(O)CCC[C@H]1n1c(=O)c(CC#N)cc2cnc(NC3CCN(S(C)(=O)=O)CC3)nc21 (single isomer, unassigned) [Example 120]  CDK6/Cyclin D1 (Homo sapiens (Human), UniProt Q00534)            0.18
5  CS(=O)(=O)N1CCC(Nc2ncc3ccc(=O)n([C@@H]4CCC[C@@H](O)C4)c3n2)CC1 [Example 3]  CDK6/Cyclin D1 (Homo sapiens (Human), UniProt Q00534)            1.17
6  C[C@]1(O)CCC[C@@H]1n1c(=O)ccc2cnc(NC3CCN(S(=O)(=O)C4CC4)CC3)nc21 (single isomer, unassigned) [Example 75]  CDK6/Cyclin D1 (Homo sapiens (Human), UniProt Q00534)            4.96
7  Cc1cc2cnc(NC3CCN(S(C)(=O)=O)CC3)nc2n([C@@H]2CC[C@@H](O)C2)c1=O (single isomer, unassigned) [Example 167]  CDK6/Cyclin D1 (Homo sapiens (Human), UniProt Q00534)            1.63
8  CCS(=O)(=O)N1CCC(Nc2ncc3cc(C)c(=O)n([C@H]4CCC[C@]4(C)O)c3n2)CC1 (single isomer, unassigned) [Example 111]  CDK6/Cyclin D1 (Homo sapiens (Human), UniProt Q00534)             4.9

// field: Ki; key: C[C@@]1(O)CCC[C@H]1n1c(=O)ccc2cnc(NC3CCN(S(=O)(=O)C4CC4)CC3)nc21 (single isomer, unassigned) [Example 74] ; value = 1.01

// field: Ki; key: CS(=O)(=O)N1CCC(Nc2ncc3cc(Cl)c(=O)n([C@@H]4CCC[C@@H](O)C4)c3n2)CC1 (single isomer, unassigned) [Example 34] ; value = 0.42

// field: Ki; key: CNS(=O)(=O)N1CCC(Nc2ncc3cc(CCO)c(=O)n(C4CCCC4)c3n2)CC1 [Example 146] ; value = 1.1

// field: Ki; key: C[C@@H]1CCC[C@@H]1n1c(=O)c(CCO)cc2cnc(NC3CCN(S(C)(=O)=O)CC3)nc21 [Example 41] ; value = 0.36

// field: Ki; key: CC[C@]1(O)CCC[C@@H]1n1c(=O)c(Cl)cc2cnc(NC3CCN(S(C)(=O)=O)CC3)nc21 (single isomer, unassigned) [Example 196] ; value = 3.84

// field: Ki; key: COCc1cc2cnc(NC3CCN(S(C)(=O)=O)CC3)nc2n(C2CCCC2)c1=O [Example 142] ; value = 0.55

// field: Ki; key: Cc1cc2cnc(NC3CCN(S(C)(=O)=O)CC3)nc2n(C2CCCCC(O)C2)c1=O (single isomer, unassigned; isomer a) [Example 223] ; value = 21

// field: Ki; key: C[C@@]1(O)CCC[C@H]1n1c(=O)ccc2cnc(NC3CCN(S(=O)(=O)CS(C)(=O)=O)CC3)nc21 [Example 190] ; value = 184

// field: Ki; key: CNS(=O)(=O)N1CCC(Nc2ncc3ccc(=O)n([C@@H]4CCC[C@@]4(C)O)c3n2)CC1 (single isomer, unassigned) [Example 56] ; value = 1.77
